Collected viability score values appear next to each entry.
System: RAW-Dual (murine macrophage reporter line)
Test: viability score (confluency relative to resting cells, overnight) (fraction); higher = more viable, active = viable (0.7 or more)
Details: modulator concentration 10 µM
// return just the number, without any unit appended

Use these answered entries as a reference point.
• Cc1ccc(Sc2c(C)nn(-c3ccccc3)c2OC(=O)C(C)(C)C)cc1 = 0.963
• Cc1cc2ncc3c(n2n1)CCN(S(=O)(=O)N(C)C)C3 = 1
• COc1c2c(nc3ccccc13)OC(C(C)(O)COC(C)=O)C2 (stereo unspecified) = 1
• Cc1cc(OCC(=O)NNC(=O)COc2ccc(Br)cc2Br)cc(C)c1Cl = 0.945
• CCOC(=O)C1=C(C)NC(C)=C(C(=O)OCC)C1c1ccc(Cl)c(Cl)c1 = 0.998
• COC(C(=O)NNC(=O)c1ccccc1Cl)c1ccccc1 (stereo unspecified) = 1.01
• CCN1C(=O)C(=Cc2nc3ccccc3c(=O)n2-c2ccc(C)cc2)c2ccccc21 = 1.01
• O=C1C(Cl)=C(N2CCCCC2)C(=O)N1c1cc(Cl)c(Cl)cc1Cl = 0.993
• COc1ccc(-n2ncc3c(Nc4cc(OC)c(OC)c(OC)c4)ncnc32)cc1 = 0.887
• COc1ccc(C=NNC(=O)CSc2nnc(-c3ccncc3)n2-c2ccccc2)cc1OC = 0.998

Next item in the queue.
Recall and state the measured viability score for "CCN(CC)Cc1ccc(Nc2ccnc3cc(Cl)ccc23)cc1O.Cl.Cl" . 1.04

---

Collected NF-kB reporter values appear next to each entry.
Test system: RAW-Dual (murine macrophage reporter line)
Assay: NF-kB reporter (SEAP) activity fold change vs agonist alone; higher = enhanced NF-kB activity
Conditions: modulator concentration 10 µM; agonist: MPLA […]
// return just the number, without any unit appended

Use these answered entries as a reference point.
- Cc1cc(OCc2nc(-c3ccc(Cl)cc3Cl)no2)ccc1Br: 1.63
- Nc1ccc(C=Cc2ccccc2)cc1: 0.976
- CCOc1ccc(OCCCCOc2cccc(C)c2)cc1: 0.932
- CCOC(=O)C1=C(COCCN)NC(C)=C(C(=O)OC)C1c1ccccc1Cl.O=S(=O)(O)c1ccccc1 (stereo unspecified): 3.73
- CSc1nnc2c(n1)[nH]c1c(C)cccc12: 0.904
- c1ccc2sc(SCCCCSc3nc4ccccc4s3)nc2c1: 0.938
- CCc1cc(=O)oc2c(C)c(OCC(=O)c3ccc(OC)cc3)ccc12: 1.06
- CC1=NN(c2ccc(C(=O)O)cc2)C(=O)C1=Cc1ccc(-c2cc(C)c(C)cc2[N+](=O)[O-])o1: 0.947

Recall and state the measured NF-kB reporter for "CN1C(=O)OC(C)(C)C1=O" . 1.05

Recall and state the measured NF-kB reporter for Cc1cccc(CN2CCN(C(c3ccccc3)c3ccc(Cl)cc3)CC2)c1.Cl.Cl (stereo unspecified) . 1.44

Recall and state the measured NF-kB reporter for "COS(=O)(=O)[O-].C[N+]1(C)CCC(=C(c2ccccc2)c2ccccc2)CC1" . 1.76

---

Tested on: RAW-Dual (murine macrophage reporter line)
Assay: IRF reporter (Lucia luciferase) activity fold change vs agonist alone; higher = enhanced IRF activity
Conditions: modulator concentration 10 µM; agonist: MPLA […]
Collected IRF reporter values appear next to each entry.
// return just the number, without any unit appended

• CCC(=O)N(CCC(c1ccccc1OC)C1CCOC(C)(C)C1)Cc1ccc(OC)cc1 (stereo not drawn) = 1.04
• O=C(O)c1cccnc1C(=O)O = 0.867
• CCOc1cc([C@@H](CS(C)(=O)=O)N2C(=O)c3cccc(NC(C)=O)c3C2=O)ccc1OC = 1.14

Recall and state the measured IRF reporter for "CCOc1ccc(N2CCN(CC(=O)O)C2=O)cc1" . 1.15

Recall and state the measured IRF reporter for COC(CNC(=O)COc1cccc2c1OC(C)(C)C2)c1ccc(Cl)s1 (stereo not drawn) . 1.14

Recall and state the measured IRF reporter for "CCOC(=O)Cc1cc(OC)c(OC)cc1C(C)=NNc1ccccc1" . 1.09

Recall and state the measured IRF reporter for "COc1c2occc2cc2ccc(=O)oc12" . 1.04

Recall and state the measured IRF reporter for "Cc1cccc(NC(=O)Cc2nnc(NC(=O)Nc3ccc(F)cc3)s2)c1" . 1.11

Recall and state the measured IRF reporter for "O=C(NN=Cc1ccccc1C(F)(F)F)c1ccc(=O)[nH]n1" . 1.28

---

Collected IRF reporter values appear next to each entry.
Test system: RAW-Dual (murine macrophage reporter line)
Experiment: IRF reporter (Lucia luciferase) activity fold change vs agonist alone; higher = enhanced IRF activity
Conditions: modulator concentration 10 µM; agonist: MPLA […]
// return just the number, without any unit appended

- CC1CC(=O)C2=C(C1)OC(N)=C(C#N)C2c1cccc2ccccc12 (stereo not given): 1.24

Recall and state the measured IRF reporter for "COc1cccc2c1C(=O)c1c(O)c3c(c(O)c1C2=O)C[C@@](O)(C(=O)CO)C[C@@H]3O[C@@H]1C[C@H](N)[C@@H](O)[C@H](C)O1" . 0.33

Recall and state the measured IRF reporter for CN1CC(c2ccccc2)OC1=O (stereo not given) . 1.29

Recall and state the measured IRF reporter for "COc1cc(C(=O)NCCCCc2ccccc2)cc(OC)c1OC" . 0.983

Recall and state the measured IRF reporter for "Cc1nn2c(=O)c(Cc3ccccc3)c(C)[nH]c2c1-c1ccccc1" . 1.36

Recall and state the measured IRF reporter for "O=C(Nc1nc2cccc(-c3ccc(CN4CCS(=O)(=O)CC4)cc3)n2n1)C1CC1" . 0.845

Recall and state the measured IRF reporter for CN1CCN2c3ccccc3Cc3ccccc3C2C1.Cl (stereo not given) . 1.2

Recall and state the measured IRF reporter for "CC(=O)Oc1ccccc1C(=O)O" . 0.884

Recall and state the measured IRF reporter for "COCCCNC(=O)CSc1ccc(Cl)cc1" . 1.1

Recall and state the measured IRF reporter for "O=C(CCn1c(=O)oc2ccccc21)Nc1ccncc1" . 0.949

Recall and state the measured IRF reporter for "CC12CC3(C)CC(C)(C1)CC(C(=O)NC(C)(C)CO)(C2)C3" . 1.52

Recall and state the measured IRF reporter for "O=C(Nc1ccc(NS(=O)(=O)c2ccccc2)cc1)c1ccco1" . 0.823

Recall and state the measured IRF reporter for OC(C(=NN=C(c1ccccc1)C(O)c1ccccc1)c1ccccc1)c1ccccc1 (stereo not given) . 1.45

---

Tested on: RAW-Dual (murine macrophage reporter line)
Assay: IRF reporter (Lucia luciferase) activity fold change vs agonist alone; higher = enhanced IRF activity
Settings: modulator concentration 10 µM; agonist: LPS 0.1 ug/mL
recorded-endpoint: IRF reporter

Use these answered entries as a reference point.
* CCN(CC)c1ccc(C=NNC(=O)c2ccccc2I)c(O)c1 | 1.08
* O=C(C=Cc1ccccc1)NC(NC(=S)Nc1cccc(O)c1)C(Cl)(Cl)Cl (configuration not stated) | 1.25
* O=C(NCCN1CCN(c2ccc(Cl)cc2)CC1)c1cnccn1 | 1.01
* COc1ccc(C=Nc2ccc(OC(C)=O)cc2)cc1 | 1.34
* O=[N+]([O-])c1ccc2nc(Cl)sc2c1 | 0.223
* C#Cc1cccc(Nc2ncnc3cc(OC)c(OCCCCCCC(=O)NO)cc23)c1 | 0.43

Recall and state the measured IRF reporter for CN(C)CCS(=O)c1ccccc1 (configuration not stated) . 1.32

Recall and state the measured IRF reporter for O=C(NCC1(O)CCOc2ccccc21)c1ccccc1C(F)(F)F (configuration not stated) . 0.669

Recall and state the measured IRF reporter for "Cc1cccc(C(=O)ON=C(c2ccncc2)c2ccc([N+](=O)[O-])cc2)c1" . 1.43

Recall and state the measured IRF reporter for "COc1ccc(C(C)=NNC(=O)Nc2ccccc2)c(OC)c1" . 1.26

Recall and state the measured IRF reporter for "CC(C)(O)CNC(=O)c1cccc([N+](=O)[O-])c1" . 0.971

Recall and state the measured IRF reporter for "CCN(CC)c1ccc(C=NNC(=O)c2ccncc2)cc1" . 0.948

---

Tested on: RAW-Dual (murine macrophage reporter line)
Assay: IRF reporter (Lucia luciferase) activity fold change vs agonist alone; higher = enhanced IRF activity
Conditions: modulator concentration 10 µM; agonist: 3'3'-cGAMP 10 ug/mL
recorded-endpoint: IRF reporter
// return just the number, without any unit appended

Use these answered entries as a reference point.
• CCCCCCOc1ccc(N2C(=O)CC(SC(=Nc3ccccc3)Nc3ccccc3)C2=O)cc1 (configuration not stated) = 0.937
• O=C(NC(=S)Nc1cccc([N+](=O)[O-])c1)c1cccc(I)c1 = 0.794
• Cc1cc(OCC(O)CN2CCCCC2C)cc(C)c1Cl.Cl (configuration not stated) = 0.955
• Cl.O[C@@H](CNC[C@H](O)[C@H]1CCc2cc(F)ccc2O1)[C@@H]1CCc2cc(F)ccc2O1 = 0.68
• COC(=O)C1C(=O)C(=CNc2ccccc2O)C(=O)CC1(C)C (configuration not stated) = 0.183
• Cc1cc(C(=O)Nc2nnc(-c3ccc(F)cc3)o2)n(C)n1 = 0.929

Recall and state the measured IRF reporter for "O=C(O)CCCNCP(=O)(O)CCc1ccccc1" . 0.964

Recall and state the measured IRF reporter for "Cc1ccc(S(=O)(=O)c2ccc(O)c(O)c2)cc1" . 0.599

Recall and state the measured IRF reporter for CC(C)C(C(=O)Nc1ccc(F)cc1)N1C(=O)c2ccccc2C1=O (configuration not stated) . 0.957

Recall and state the measured IRF reporter for "c1ccc(CC(=NNc2ccccc2)c2ccc(-c3ccccc3)cc2)cc1" . 0.657

Recall and state the measured IRF reporter for "O=S(=O)(Nc1ccnc2ccccc12)c1ccccc1" . 0.858
